# Experimental System: hERG (KCNH2) (Homo sapiens, UniProt Q12809)
# Sequence (Q12809 whole entry): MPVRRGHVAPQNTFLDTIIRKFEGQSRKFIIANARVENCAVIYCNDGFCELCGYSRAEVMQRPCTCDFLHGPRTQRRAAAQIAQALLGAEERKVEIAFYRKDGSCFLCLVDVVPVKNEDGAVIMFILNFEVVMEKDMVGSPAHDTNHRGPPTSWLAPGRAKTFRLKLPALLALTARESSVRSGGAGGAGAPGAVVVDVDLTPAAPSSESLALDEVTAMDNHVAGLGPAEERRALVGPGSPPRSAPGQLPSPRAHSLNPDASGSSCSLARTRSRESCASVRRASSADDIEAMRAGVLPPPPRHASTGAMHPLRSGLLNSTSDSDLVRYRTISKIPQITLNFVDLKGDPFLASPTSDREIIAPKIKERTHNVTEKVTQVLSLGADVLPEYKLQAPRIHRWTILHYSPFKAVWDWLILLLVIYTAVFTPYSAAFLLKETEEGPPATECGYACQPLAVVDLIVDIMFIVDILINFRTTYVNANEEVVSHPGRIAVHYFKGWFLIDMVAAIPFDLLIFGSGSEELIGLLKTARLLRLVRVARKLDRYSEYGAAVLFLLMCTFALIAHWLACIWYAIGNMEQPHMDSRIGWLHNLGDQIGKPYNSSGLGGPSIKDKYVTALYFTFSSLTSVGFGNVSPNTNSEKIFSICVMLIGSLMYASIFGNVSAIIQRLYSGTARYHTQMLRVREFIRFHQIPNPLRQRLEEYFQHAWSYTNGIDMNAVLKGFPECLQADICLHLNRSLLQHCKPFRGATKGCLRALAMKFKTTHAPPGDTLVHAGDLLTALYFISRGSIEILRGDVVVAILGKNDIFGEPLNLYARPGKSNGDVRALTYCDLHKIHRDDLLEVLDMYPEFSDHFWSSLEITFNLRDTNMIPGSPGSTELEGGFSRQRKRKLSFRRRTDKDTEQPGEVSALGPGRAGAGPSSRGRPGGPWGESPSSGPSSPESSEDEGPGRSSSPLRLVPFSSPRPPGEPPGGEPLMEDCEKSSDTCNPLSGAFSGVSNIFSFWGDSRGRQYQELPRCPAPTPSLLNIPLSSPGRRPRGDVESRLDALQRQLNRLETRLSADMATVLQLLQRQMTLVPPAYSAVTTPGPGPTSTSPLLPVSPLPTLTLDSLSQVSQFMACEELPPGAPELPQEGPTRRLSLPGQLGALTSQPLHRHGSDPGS
# Assay Comment: Displacement of dofetilide from human ERG at 10 uM
# Reported Conditions: probe dofetilide
Please provide measured inhibition at 10 µM for the entries that follow.
Lab book: enter the figure in %, no units written.

Measured inhibition at 10 µM, CO[C@@H]1COCC[C@@H]1N[C@@H]1CC[C@@](C(=O)N2C[C@@H]3C[C@H]2CN3C(=O)CC(C)(C)C)(C(C)C)C1 : 0

Measured inhibition at 10 µM, CC(C)[C@]1(C(=O)N2C[C@@H]3C[C@H]2CN3C(=O)c2ccccc2)CC[C@@H](NC2CCOCC2F)C1 (some centres undefined) : 0

Measured inhibition at 10 µM, CC(C)[C@]1(C(=O)N2C[C@@H]3C[C@H]2CN3C(=O)OC(C)(C)C)CC[C@@H](NC2CCOCC2F)C1 (some centres undefined) : 6

Measured inhibition at 10 µM, CO[C@@H]1COCC[C@@H]1N[C@@H]1CC[C@@](C(=O)N2C[C@@H]3C[C@H]2CN3C(=O)C2CCC2)(C(C)C)C1 : 4

---

# Experimental System: C-C chemokine receptor type 2 (Homo sapiens)
# Assay Comment: Displacement of [125I]MCP1 from human CCR2 preincubated 30 mins by human whole cell binding assay
Please provide measured IC50 for the entries that follow.
Lab book: enter the figure in nM, no units written.

Measured IC50, CC(C)[C@]1(C(=O)N2C[C@@H]3C[C@H]2CN3C(=O)C2CCCCC2)CC[C@@H](NC2CCOCC2)C1 : 11.6

Measured IC50, CC(OC(=O)N1C[C@@H]2C[C@H]1CN2C(=O)[C@@]1(C(C)C)CC[C@@H](NC2CCOCC2F)C1)C(F)(F)F (some centres undefined) : 3.2

Measured IC50, CC(C)[C@]1(C(=O)N2C[C@@H]3C[C@H]2CN3C(=O)OC2CCCC2)CC[C@@H](NC2CCOCC2F)C1 (some centres undefined) : 3.1

Measured IC50, CC(C)[C@]1(C(=O)N2C[C@@H]3C[C@H]2CN3C(=O)CC2CCCC2)CC[C@@H](NC2CCOCC2F)C1 (some centres undefined) : 14.7

---

# Experimental System: C-C chemokine receptor type 2 (Homo sapiens, UniProt P41597)
# Sequence (P41597 whole entry): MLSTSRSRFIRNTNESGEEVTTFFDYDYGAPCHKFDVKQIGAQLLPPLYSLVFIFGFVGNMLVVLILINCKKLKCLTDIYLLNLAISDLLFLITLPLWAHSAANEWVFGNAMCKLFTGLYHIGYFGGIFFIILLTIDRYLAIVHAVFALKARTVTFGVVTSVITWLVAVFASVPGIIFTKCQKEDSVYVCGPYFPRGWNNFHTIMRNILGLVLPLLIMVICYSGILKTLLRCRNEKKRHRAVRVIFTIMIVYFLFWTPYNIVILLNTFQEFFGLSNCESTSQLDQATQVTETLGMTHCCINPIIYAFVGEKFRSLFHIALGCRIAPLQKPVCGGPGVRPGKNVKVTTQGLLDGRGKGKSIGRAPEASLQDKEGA
# Assay Comment: Displacement of [125I]MCP1 from human CCR2 preincubated 30 mins by human whole cell binding assay
Measure Name: pIC50
Give only the number. pIC50 is defined as minus log10 of concentration in molar units.

Measured pIC50, CC(C)[C@]1(C(=O)N2C[C@@H]3C[C@H]2CN3C(=O)CC(C)(C)C)CC[C@@H](NC2CCOCC2F)C1 (some centres undefined) : 7.40

Measured pIC50, CC(CC(=O)N1C[C@@H]2C[C@H]1CN2C(=O)[C@@]1(C(C)C)CC[C@@H](NC2CCOCC2F)C1)C(F)(F)F (some centres undefined) : 7.89

Measured pIC50, CO[C@@H]1COCC[C@@H]1N[C@@H]1CC[C@@](C(=O)N2C[C@@H]3C[C@H]2CN3C(=O)c2ccccc2)(C(C)C)C1 : 7.92

Measured pIC50, CC(C)[C@]1(C(=O)N2C[C@@H]3C[C@H]2CN3C(=O)N2CCCCC2)CC[C@@H](NC2CCOCC2F)C1 (some centres undefined) : 7.12

---

# Assay Comment: Half life in human liver microsomes at 1 uM
# Type: ADME, Microsome
Please provide measured half-life at 1 µM for the entries that follow.

Measured half-life at 1 µM, CC(C)[C@]1(C(=O)N2C[C@@H]3C[C@H]2CN3C(=O)C2CC2)CC[C@@H](NC2CCOCC2)C1 : > 2 h

Measured half-life at 1 µM, CC(C)[C@]1(C(=O)N2C[C@@H]3C[C@H]2CN3C(=O)C2CCCC2)CC[C@@H](NC2CCOCC2)C1 : > 2 h

Measured half-life at 1 µM, CC(OC(=O)N1C[C@@H]2C[C@H]1CN2C(=O)[C@@]1(C(C)C)CC[C@@H](NC2CCOCC2F)C1)C(F)(F)F (some centres undefined) : 0.433 h

Measured half-life at 1 µM, CO[C@@H]1COCC[C@@H]1N[C@@H]1CC[C@@](C(=O)N2C[C@@H]3C[C@H]2CN3C(=O)C2CCC2)(C(C)C)C1 : > 2 h
